// provenance: the supplement of paper PMC11061612

Tested on: SNU-61 (Colorectal Carcinoma)
Test: combination Emax (second highest fraction inhibited in the dose matrix, 72 h); higher = more inhibition; extreme values may be limits of the assay
Documented combination Emax across a set of molecules
Reported Property: combination Emax

Molecule	Observed Result
CC1(C)CCC(CN2CCN(c3ccc(C(=O)NS(=O)(=O)c4ccc(NCC5CCOCC5)c([N+](=O)[O-])c4)c(Oc4cnc5[nH]ccc5c4)c3)CC2)=C(c2ccc(Cl)cc2)C1 [Venetoclax] + C1CN(CCC1(C(=O)N[C@@H](CCO)C2=CC=C(C=C2)Cl)N)C3=NC=NC4=C3C=CN4 [Capivasertib] (first compound max 1 µM, 7x7, partner max 3 µM)	0.154
CN(C)CCCOc1ccc(-c2ccc3ncc4c(c3c2)n(C2CCOCC2)c(=O)n4C)cn1 [AZD0156] + C[C@@H]1COCCN1C2=NC(=NC(=C2)C3(CC3)[S@](=N)(=O)C)C4=C5C=CNC5=NC=C4 [AZD6738] (first compound max 1 µM, 7x7, partner max 10 µM)	0.299
Cc1c2c(nn1C)CSCc1cc(n(C)n1)CSc1cc(c3ccccc3c1)OCCCc1c(C(=O)O)n(C)c3c-2c(Cl)ccc13 [AZD5991] + C1CN(CCC1(C(=O)N[C@@H](CCO)C2=CC=C(C=C2)Cl)N)C3=NC=NC4=C3C=CN4 [Capivasertib] (first compound max 1 µM, 7x7, partner max 3 µM)	0.117
NC1(C(=O)N[C@@H](CCO)c2ccc(Cl)cc2)CCN(c2ncnc3[nH]ccc23)CC1 [Capivasertib] + Cn1cnc2c(F)c(Nc3ccc(Br)cc3Cl)c(C(=O)NOCCO)cc21 [Selumetinib] (first compound max 10 µM, 7x7, partner max 10 µM)	0.46

====

Test system: 647-V (Bladder Carcinoma)
Assay: Bliss excess, mean over the matrix (fraction); higher = more synergy

Molecule	Target Desc	Bliss excess
CC1(C)CCC(CN2CCN(c3ccc(C(=O)NS(=O)(=O)c4ccc(NCC5CCOCC5)c([N+](=O)[O-])c4)c(Oc4cnc5[nH]ccc5c4)c3)CC2)=C(c2ccc(Cl)cc2)C1 [Venetoclax] + Cn1cnc2c(F)c(Nc3ccc(Br)cc3Cl)c(C(=O)NOCCO)cc21 [Selumetinib] (first compound max 1 µM, 7x7, partner max 3 µM)	647-V (Bladder Carcinoma)	-0.0064
COc1nnc2ccc(N3CCC(c4ccc(OCCN5CCN(C)C(=O)[C@H]5C)cc4)CC3)nn12 [AZD5153] + C=CCn1c(=O)c2cnc(Nc3ccc(N4CCN(C)CC4)cc3)nc2n1-c1cccc(C(C)(C)O)n1 [AZD1775] (first compound max 1 µM, partner max 1 µM)	647-V (Bladder Carcinoma)	-0.0448
Cc1c2c(nn1C)CSCc1cc(n(C)n1)CSc1cc(c3ccccc3c1)OCCCc1c(C(=O)O)n(C)c3c-2c(Cl)ccc13 [AZD5991] + C=CCn1c(=O)c2cnc(Nc3ccc(N4CCN(C)CC4)cc3)nc2n1-c1cccc(C(C)(C)O)n1 [AZD1775] (first compound max 1 µM, partner max 1 µM)	647-V (Bladder Carcinoma)	0.059
Cn1cnc2c(F)c(Nc3ccc(Br)cc3Cl)c(C(=O)NOCCO)cc21 [Selumetinib] + C=CCn1c(=O)c2cnc(Nc3ccc(N4CCN(C)CC4)cc3)nc2n1-c1cccc(C(C)(C)O)n1 [AZD1775] (first compound max 10 µM, partner max 1 µM)	647-V (Bladder Carcinoma)	-0.0359

====

Documented Bliss excess across a set of compounds
Test system: HOP-92 (Non-Small Cell Lung Carcinoma)
Test: Bliss excess, mean over the matrix (fraction); higher = more synergy

Compound	Bliss excess
Cn1cnc2c(F)c(Nc3ccc(Br)cc3Cl)c(C(=O)NOCCO)cc21 [Selumetinib] + C=CCn1c(=O)c2cnc(Nc3ccc(N4CCN(C)CC4)cc3)nc2n1-c1cccc(C(C)(C)O)n1 [AZD1775] (first compound max 10 µM, partner max 1 µM)	-0.056
CN(CCO)CC[C@H](CSc1ccccc1)Nc1ccc(S(=O)(=O)NC(=O)c2ccc(N3CCC([C@@H](O)c4ccccc4-c4ccc(Cl)cc4)CC3)cc2)cc1S(=O)(=O)C(F)(F)F [AZD4320] + Cc1cc2ncnn2cc1Nc1ncc2c(n1)n(C1CCOCC1)c(=O)n2C [AZD7648] (first compound max 1 µM, 7x7, partner max 10 µM)	-0.0034
Cc1c2c(nn1C)CSCc1cc(n(C)n1)CSc1cc(c3ccccc3c1)OCCCc1c(C(=O)O)n(C)c3c-2c(Cl)ccc13 [AZD5991] + CC1(C)CCC(CN2CCN(c3ccc(C(=O)NS(=O)(=O)c4ccc(NCC5CCOCC5)c([N+](=O)[O-])c4)c(Oc4cnc5[nH]ccc5c4)c3)CC2)=C(c2ccc(Cl)cc2)C1 [Venetoclax] (first compound max 1 µM, 7x7, partner max 1 µM)	0.0247

====

Documented Bliss excess across a set of compounds
Test system: H4 (Low Grade Glioma)
Assay: Bliss excess, mean over the matrix (fraction); higher = more synergy
Reported Property: Bliss excess

Compound	Target Desc	Reported Property	Observed Result
C=CCn1c(=O)c2cnc(Nc3ccc(N4CCN(C)CC4)cc3)nc2n1-c1cccc(C(C)(C)O)n1 [AZD1775] + C1CN(CCC1(C(=O)N[C@@H](CCO)C2=CC=C(C=C2)Cl)N)C3=NC=NC4=C3C=CN4 [Capivasertib] (first compound max 3 µM, partner max 3 µM)	H4 (Low Grade Glioma)	Bliss excess	-0.0472
O=C(c1cc(Cc2n[nH]c(=O)c3ccccc23)ccc1F)N1CCN(C(=O)C2CC2)CC1 [Olaparib] + CC1(C)CCC(CN2CCN(c3ccc(C(=O)NS(=O)(=O)c4ccc(NCC5CCOCC5)c([N+](=O)[O-])c4)c(Oc4cnc5[nH]ccc5c4)c3)CC2)=C(c2ccc(Cl)cc2)C1 [Venetoclax] (first compound max 10 µM, 7x7, partner max 1 µM)	H4 (Low Grade Glioma)	Bliss excess	-0.011
COc1cccc(OCCCN)c1-c1cc(Nc2cnc(C#N)cn2)n[nH]1 [Prexasertib] + O=C(c1cc(Cc2n[nH]c(=O)c3ccccc23)ccc1F)N1CCN(C(=O)C2CC2)CC1 [Olaparib] (first compound max 1 µM, 7x7, partner max 10 µM)	H4 (Low Grade Glioma)	Bliss excess	-0.0306

====

Documented combination Emax across a set of compounds
Test system: D-392MG (Glioblastoma)
Test: combination Emax (second highest fraction inhibited in the dose matrix, 72 h); higher = more inhibition; extreme values may be limits of the assay

Compound	combination Emax
N#Cc1cnc(Nc2cc(NC[C@H]3CNCCO3)c(C(F)(F)F)cn2)cn1 [SRA737] + C=CCn1c(=O)c2cnc(Nc3ccc(N4CCN(C)CC4)cc3)nc2n1-c1cccc(C(C)(C)O)n1 [AZD1775] (first compound max 10 µM, partner max 1 µM)	0.518
C=CCn1c(=O)c2cnc(Nc3ccc(N4CCN(C)CC4)cc3)nc2n1-c1cccc(C(C)(C)O)n1 [AZD1775] + CCc1c2c(nc3ccc(O)cc13)-c1cc3c(c(=O)n1C2)COC(=O)[C@]3(O)CC [SN-38] (first compound max 1 µM, partner max 0.3 µM)	0.569
CC1(C)CCC(CN2CCN(c3ccc(C(=O)NS(=O)(=O)c4ccc(NCC5CCOCC5)c([N+](=O)[O-])c4)c(Oc4cnc5[nH]ccc5c4)c3)CC2)=C(c2ccc(Cl)cc2)C1 [Venetoclax] + C=CCn1c(=O)c2cnc(Nc3ccc(N4CCN(C)CC4)cc3)nc2n1-c1cccc(C(C)(C)O)n1 [AZD1775] (first compound max 1 µM, partner max 1 µM)	0.5
Cc1c2c(nn1C)CSCc1cc(n(C)n1)CSc1cc(c3ccccc3c1)OCCCc1c(C(=O)O)n(C)c3c-2c(Cl)ccc13 [AZD5991] + C[C@@H](Nc1cc(F)cc(F)c1)c1cc(C(=O)N(C)C)cc2c(=O)cc(N3CCOCC3)oc12 [AZD8186] (first compound max 1 µM, 7x7, partner max 3 µM)	0.301
C=CCn1c(=O)c2cnc(Nc3ccc(N4CCN(C)CC4)cc3)nc2n1-c1cccc(C(C)(C)O)n1 [AZD1775] + O=C(c1cc(Cc2n[nH]c(=O)c3ccccc23)ccc1F)N1CCN(C(=O)C2CC2)CC1 [Olaparib] (first compound max 1 µM, partner max 10 µM)	0.235
Cc1c2c(nn1C)CSCc1cc(n(C)n1)CSc1cc(c3ccccc3c1)OCCCc1c(C(=O)O)n(C)c3c-2c(Cl)ccc13 [AZD5991] + CN(C)CCCOc1ccc(-c2ccc3ncc4c(c3c2)n(C2CCOCC2)c(=O)n4C)cn1 [AZD0156] (first compound max 1 µM, 7x7, partner max 1 µM)	0.252
CS(=O)(=O)CCNCc1ccc(-c2ccc3ncnc(Nc4ccc(OCc5cccc(F)c5)c(Cl)c4)c3c2)o1 [Lapatinib] + Cn1cnc2c(F)c(Nc3ccc(Br)cc3Cl)c(C(=O)NOCCO)cc21 [Selumetinib] (first compound max 10 µM, 7x7, partner max 10 µM)	0.396
CCN(CCO)CCCOc1ccc2c(Nc3cc(CC(=O)Nc4cccc(F)c4)[nH]n3)ncnc2c1 [AZD2811] + C[C@@H]1COCCN1C2=NC(=NC(=C2)C3(CC3)[S@](=N)(=O)C)C4=C5C=CNC5=NC=C4 [AZD6738] (first compound max 1 µM, 7x7, partner max 10 µM)	0.392
CN(C)CCCOc1ccc(-c2ccc3ncc4c(c3c2)n(C2CCOCC2)c(=O)n4C)cn1 [AZD0156] + C=CCn1c(=O)c2cnc(Nc3ccc(N4CCN(C)CC4)cc3)nc2n1-c1cccc(C(C)(C)O)n1 [AZD1775] (first compound max 1 µM, partner max 1 µM)	0.18
COc1cccc(OCCCN)c1-c1cc(Nc2cnc(C#N)cn2)n[nH]1 [Prexasertib] + O=C(c1cc(Cc2n[nH]c(=O)c3ccccc23)ccc1F)N1CCN(C(=O)C2CC2)CC1 [Olaparib] (first compound max 1 µM, 7x7, partner max 10 µM)	0.491
C[C@@H]1COCCN1c1cc(C2([S@](C)(=N)=O)CC2)nc(-c2ccnc3[nH]ccc23)n1 [AZD6738] + C1CC(C1)(C(=O)[O-])C(=O)[O-].N.N.[Pt+2] [Carboplatin] (first compound max 10 µM, 7x7, partner max 10 µM)	0.423
CCc1c2c(nc3ccc(O)cc13)-c1cc3c(c(=O)n1C2)COC(=O)[C@]3(O)CC [SN-38] + CN(C)CCCOc1ccc(-c2ccc3ncc4c(c3c2)n(C2CCOCC2)c(=O)n4C)cn1 [AZD0156] (first compound max 0.3 µM, 7x7, partner max 1 µM)	0.609
N#Cc1cnc(Nc2cc(NC[C@H]3CNCCO3)c(C(F)(F)F)cn2)cn1 [SRA737] + Nc1ccn([C@@H]2O[C@H](CO)[C@@H](O)C2(F)F)c(=O)n1 [Gemcitabine] (first compound max 10 µM, 7x7, partner max 0.3 µM)	0.611
CC1(C)CCC(CN2CCN(c3ccc(C(=O)NS(=O)(=O)c4ccc(NCC5CCOCC5)c([N+](=O)[O-])c4)c(Oc4cnc5[nH]ccc5c4)c3)CC2)=C(c2ccc(Cl)cc2)C1 [Venetoclax] + CCN(CCO)CCCOc1ccc2c(Nc3cc(CC(=O)Nc4cccc(F)c4)[nH]n3)ncnc2c1 [AZD2811] (first compound max 1 µM, 7x7, partner max 1 µM)	0.217
